Measurement target: T1, recombinant human IL-23R/Fc chimera (R&D Systems) (human, UniProt Q5VWK5 24-355)
T1 construct: Bought; also called rhIL23RFc
T1 sequence (looked up): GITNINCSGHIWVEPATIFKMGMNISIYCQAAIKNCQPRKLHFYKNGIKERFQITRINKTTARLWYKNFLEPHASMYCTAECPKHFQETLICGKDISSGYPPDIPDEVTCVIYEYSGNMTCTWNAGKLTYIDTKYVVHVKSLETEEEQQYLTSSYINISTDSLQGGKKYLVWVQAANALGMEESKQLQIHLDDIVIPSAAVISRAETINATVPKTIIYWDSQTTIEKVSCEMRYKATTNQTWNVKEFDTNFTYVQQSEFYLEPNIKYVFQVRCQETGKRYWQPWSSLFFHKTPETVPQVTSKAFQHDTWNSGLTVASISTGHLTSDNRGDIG
Protocol description: competition ELISA vs IL-23
Catalogue of binders with associated Ratio IC50 to 056-53.H4E IC50
Answer using only a numeral; do not append any unit.

Guide cases for Ratio IC50 to 056-53.H4E IC50, answers given:
Binder	Assay readout	Reported
105-08-1D2 ATRIMER complex (designed binder, not shown: C-terminal tag: His/Myc (pANA4) or HA-StrepII (pANA10)) EPPTQKPKKIVNAKKDVVNTKMFEELKSRLDTLAQEVALLKEQQALQTVCLKGTKVHMKCFLAFTQTKTFHEASEDCISRGGTLSTPQTGSENDALYEYLRQSVGNEAEIWLGLNGSPVTDTWVDMTGARIAYKNWETEITAQPDGGFGYFGENCAVLSGAANGKWFDKRCRDQLPYICQFGIV	Ratio IC50 to 056-53.H4E IC50	4.3
105-08-1C6 ATRIMER complex (designed binder) EPPTQKPKKIVNAKKDVVNTKMFEELKSRLDTLAQEVALLKEQQALQTVCLKGTKVHMKCFLAFTQTKTFHEASEDCISRGGTLSTPQTGSENDALYEYLRQSVGNEAEIWLGLNGSALTDTWVDMTGARIAYKNWETEITAQPDGGFGYFGENCAVLSGAANGKWFDKRCRDQLPYICQFGIV	Ratio IC50 to 056-53.H4E IC50	2
105-08-1A3 ATRIMER complex (designed binder, Homotrimer of three identical chains (ATRIMER complex); one chain is given., not shown: C-terminal tag: His/Myc (pANA4) or HA-StrepII (pANA10)) EPPTQKPKKIVNAKKDVVNTKMFEELKSRLDTLAQEVALLKEQQALQTVCLKGTKVHMKCFLAFTQTKTFHEASEDCISRGGTLSTPQTGSENDALYEYLRQSVGNEAEIWLGLNGSPRTDTWVDMTGARIAYKNWETEITAQPDGGWGVFGENCAVLSGAANGKWFDKRCRDQLPYICQFGIV	Ratio IC50 to 056-53.H4E IC50	1.1
105-20-2C11 ATRIMER complex (designed binder, not shown: C-terminal tag: His/Myc (pANA4) or HA-StrepII (pANA10)) EPPTQKPKKIVNAKKDVVNTKMFEELKSRLDTLAQEVALLKEQQALQTVCLKGTKVHMKCFLAFTQTKTFHEASEDCISRGGTLSTPQTGSENDALYEYLRQSVGNEAEIWLGLNGSVRTDTWVDMTGARIAYKNWETEITAQPDGGWGYFGENCAVLSGAANGKWFDKRCRDQLPYICQFGIV	Ratio IC50 to 056-53.H4E IC50	4.8
105-78-2E6 ATRIMER complex (designed binder) EPPTQKPKKIVNAKKDVVNTKMFEELKSRLDTLAQEVALLKEQQALQTVCLKGTKVHMKCFLAFTQTKTFHEASEDCISRGGTLSTPQTGSENDALYEYLRQSVGNEAEIWLGLNGSLRTNTWVDMTGARIAYKNWETEITAQPDGGFGVFGENCAVLSGAANGKWFDKRCRDQLPYICQFGIV	Ratio IC50 to 056-53.H4E IC50	1

Now turn to the next binder.
Find the recorded Ratio IC50 to 056-53.H4E IC50 belonging to 105-08-2C1 ATRIMER complex (designed binder, not shown: small tags and cut ends) EPPTQKPKKIVNAKKDVVNTKMFEELKSRLDTLAQEVALLKEQQALQTVCLKGTKVHMKCFLAFTQTKTFHEASEDCISRGGTLSTPQTGSENDALYEYLRQSVGNEAEIWLGLNGSSLTDTWVDMTGARIAYKNWETEITAQPDGGWGYFGENCAVLSGAANGKWFDKRCRDQLPYICQFGIV and report it. 3.6
